- target-desc: RecO (Escherichia coli)
- Construct: His-tag (TEV site) (N, cleaved yes); made in house; host or cells: E. coli Rosetta cells
- Sequence (P0A7H3 whole entry): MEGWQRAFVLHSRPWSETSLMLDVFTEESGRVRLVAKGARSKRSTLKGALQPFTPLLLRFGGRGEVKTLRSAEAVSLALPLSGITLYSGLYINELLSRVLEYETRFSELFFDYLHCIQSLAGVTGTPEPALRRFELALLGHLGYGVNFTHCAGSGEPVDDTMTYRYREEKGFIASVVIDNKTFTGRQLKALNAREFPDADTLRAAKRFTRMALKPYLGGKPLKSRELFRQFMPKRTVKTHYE
- assay-overview: biochemical
- Assay type: binding
- assay-conditions: 0.5 μM RecO, 50 nM F-wtSSB tracer, 0–500 μM unlabeled peptide, 30 min room temperature; 20 mM Tris-HCl pH 8.0, 200 mM NaCl, 10% glycerol, 0.01% Triton-X 100; 25 °C; triplicate; read-out: IC50 on RecO, competitive fluorescence anisotropy
Where a SMILES comes first, the peptide text is derived from it. [ ]: non-standard residue; d: D form. 3Pal = N[C@@H](Cc1cccnc1)C(=O)O; Tic = O=C(O)[C@@H]1Cc2ccccc2CN1; 2Thi = N[C@@H](Cc1cccs1)C(=O)O; β3hD = NC(CC(=O)O)CC(=O)O
measured-property: pIC50
The read-out pIC50 is expressed as -log10 of concentration in moles per litre.

These solved cases illustrate the format of a correct answer.
• CC[C@H](C)[C@H](NC(=O)[C@H](CC(=O)O)NC(=O)[C@H](CC(=O)O)NC(=O)[C@H](CC(=O)O)NC(=O)[C@H](Cc1ccccc1)NC(=O)[C@H](CC(=O)O)NC(C)=O)C(=O)N1CCC[C@H]1C(=O)N[C@@H](Cc1cccnc1)C(=O)O [3Pal8] (Ac-DFDDDIP[3Pal]-OH) = 4.50
• CC[C@H](C)[C@H](NC(=O)C[C@H](CC(=O)O)NC(=O)[C@H](CC(=O)O)NC(=O)[C@H](CC(=O)O)NC(=O)[C@H](Cc1ccccc1)NC(=O)[C@H](CC(=O)O)NC(C)=O)C(=O)N1CCC[C@H]1C(=O)N[C@@H](Cc1ccccc1)C(=O)O [β3-Asp5] (Ac-DFDD[β3hD]IPF-OH) = 5.23
• CC[C@H](C)[C@H](NC(=O)[C@H](CC(=O)O)NC(=O)[C@H](CC(=O)O)NC(=O)[C@H](CC(=O)O)NC(=O)[C@@H]1Cc2ccccc2CN1C(=O)[C@H](CC(=O)O)NC(C)=O)C(=O)N1CCC[C@H]1C(=O)N[C@@H](Cc1ccccc1)C(=O)O [Tic2] (Ac-D[Tic]DDDIPF-OH) = 5.40

# evaluate next
Please look up its pIC50: CC[C@H](C)[C@H](NC(=O)[C@H](CC(=O)O)NC(=O)[C@H](CC(=O)O)NC(=O)[C@H](CC(=O)O)NC(=O)[C@H](Cc1ccccc1)NC(=O)[C@H](CC(=O)O)NC(C)=O)C(=O)N1CCC[C@H]1C(=O)N[C@@H](Cc1cccs1)C(=O)O [Thi8] (Ac-DFDDDIP[2Thi]-OH)
5.07

###

- target-desc: ExoI (Escherichia coli, UniProt P04995)
- Construct: His-tag (cleaved yes); host or cells: E. coli BL21 (DE3) pLysS
- Sequence (P04995 whole entry): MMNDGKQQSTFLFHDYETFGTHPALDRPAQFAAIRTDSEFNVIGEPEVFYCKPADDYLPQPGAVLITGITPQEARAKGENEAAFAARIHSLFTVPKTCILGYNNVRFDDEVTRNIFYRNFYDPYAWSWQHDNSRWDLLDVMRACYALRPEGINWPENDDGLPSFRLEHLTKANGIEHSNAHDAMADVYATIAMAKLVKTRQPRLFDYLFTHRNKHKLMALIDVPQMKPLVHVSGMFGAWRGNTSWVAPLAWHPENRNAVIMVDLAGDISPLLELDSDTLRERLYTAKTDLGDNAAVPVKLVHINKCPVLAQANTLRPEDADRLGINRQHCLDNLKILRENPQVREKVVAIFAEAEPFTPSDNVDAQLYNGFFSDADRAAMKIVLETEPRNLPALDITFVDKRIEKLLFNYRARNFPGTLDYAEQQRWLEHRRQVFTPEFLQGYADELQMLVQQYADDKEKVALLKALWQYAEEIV
- assay-overview: biochemical
- Format: binding, E. coli
Where no end group is shown, it is not given here.
Flag rule - IC50 less than 6 µM flags t; the remaining entries get f.

Use these answered entries as a reference point.
* Ac-DFDEDIPF [Glu4] | t
* Ac-DFDDNIPF [Asn5] | f
* Ac-DFNDDIPF [Asn3] | f

Please indicate whether the reported IC50 of Ac-DFEDDIPF [Glu3] is strictly below 6 µM.
t

Can you handle Ac-NFDDDIPF [Asn1] next?
f

Can you handle Ac-EFDDDIPF [Glu1] next?
t
